Test system: HOP-62 NSCLC
Experiment: NCI tumour cell line growth inhibition, 48 h
measurement_type: TGI

These recorded examples may help you get a feel for the data.
compound: C/C(=C(/C)c1cc[n+](C)cc1)c1cc[n+](C)cc1
TGI: > 75 µM
--
compound: Cc1cccc2c(N=Nc3ccccc3[N+](=O)[O-])c(O)[nH]c12
TGI: 21.8 µM

Return TGI for the following compound: Cc1cccc(C)c1NC(=O)CCCC(=O)C(C#N)c1ccc(Cl)cc1 (stereo not given)
> 100 µM

Return TGI for the following compound: "Cc1ccc(NC(=O)N2CCCCC2)cc1[N+](=O)[O-]"
> 100 µM

Return TGI for the following compound: CCOC(=O)C1=C(C)N(NC(=O)OC)C2(N)N(NC(=O)OC)C(C)=C(C(=O)OCC)C12C#N (stereo not given)
> 100 µM

Return TGI for the following compound: CCOC(=O)C(O)Cc1cnc2ccccc2n1 (stereo not given)
> 100 µM

Return TGI for the following compound: "COc1cc2c(c(OC)c1OC)C(=O)c1c-2n(CCCN=[N+]=[N-])c(=O)c2cc([N+](=O)[O-])ccc12"
> 100 µM

###

Reported TGI by item:
System: LOX IMVI melanoma
Assay: NCI tumour cell line growth inhibition, 48 h

These recorded examples may help you get a feel for the data.
compound: Oc1c(Cl)cc(CN(Cc2cc(Cl)c(O)c(Cl)c2)C2CCCCC2)cc1Cl
TGI: > 100 µM
//
compound: COc1cc(OC)c2nc(C)c3c(c2c1)OCC3
TGI: > 100 µM
//
compound: O=S1(=O)c2ccccc2-c2nccc3ccnc1c23
TGI: > 100 µM
//
compound: Clc1ccc(N/N=C(\c2ccccc2)c2ccccn2)nc1
TGI: 4.48 µM
//
compound: O=C([CH-]C(=O)c1ccccc1)c1ccccc1.[CH3-].[CH3-].[CH3-].[Sn+4]
TGI: 25.9 µM
//
compound: C/C(=C1/N=C(c2ccccc2)OC1=O)c1ccccc1
TGI: > 100 µM

// switching to the query compound
Using LOX IMVI melanoma as the test system, report measured TGI of "CC(=O)[C@]12OC(=O)C3=C1[C@H](CC[C@@H]3C)[C@@H](C)C[C@H]2C=C(C)C" .
15.2 µM

###

System: NCI-H460 lung
Experiment: NCI tumour cell line growth inhibition, 48 h
measurement_type: TGI (µM)
Return type: number; implicit unit µM.

These recorded examples may help you get a feel for the data.
compound: Cc1cccc2c(N=Nc3ccccc3[N+](=O)[O-])c(O)[nH]c12
measurement_type: TGI
value_measured: 30.6
--
compound: O=S(=O)([O-])[O-].[Fe+2].[OH2+]c1c(Cl)cc(Cl)cc1/C=N/Nc1ccccn1
measurement_type: TGI
value_measured: 4.42
--
compound: C[C@@H]1CC[C@@H]2[C@@H]1[C@H](OC(=O)c1ccc3ccccc3c1)[C@]1(C3CCCCC3)C[C@@H](OC(=O)CO)[C@@]2(C)O1
measurement_type: TGI
value_measured: 23.7
--
compound: CC(=O)C(N=NC1CCC(S(=O)(=O)NB2N=CS2)CC1)C(=O)Nc1ccccc1C (centres undefined)
measurement_type: TGI
value_measured: 33.9

Return TGI for the following compound: "c1ccc2c(-c3cnn4cc(-c5ccc(N6CCNCC6)cc5)cnc34)ccnc2c1"
0.525

Return TGI for the following compound: "CC(=O)[C@]12OC(=O)C3=C1[C@H](CC[C@@H]3C)[C@@H](C)C[C@H]2C=C(C)C"
17.3

Return TGI for the following compound: C=C1C(=O)OC2/C=C(\C)CC/C=C(\C)CC(OC(=O)/C(=C/CO)CO)[C@@H]12 (some centres undefined)
48.8

Return TGI for the following compound: "CN(C)CCCN1c2ccc(O)cc2Sc2ccc(Cl)cc21"
14.5

Return TGI for the following compound: "C[n+]1cc2cc3c(cc2c2ccccc21)OCO3"
14.5

Return TGI for the following compound: "O=C1c2ccccc2C(=O)c2sc(Nc3ccc(Cl)cc3)nc21"
11.7

The origin of these recorded values is PubChem BioAssay (NCI).
